biological target: APJ (orphan G protein-coupled receptor protein); assay: cell-based or functional assay
Sequence (P35414 whole entry): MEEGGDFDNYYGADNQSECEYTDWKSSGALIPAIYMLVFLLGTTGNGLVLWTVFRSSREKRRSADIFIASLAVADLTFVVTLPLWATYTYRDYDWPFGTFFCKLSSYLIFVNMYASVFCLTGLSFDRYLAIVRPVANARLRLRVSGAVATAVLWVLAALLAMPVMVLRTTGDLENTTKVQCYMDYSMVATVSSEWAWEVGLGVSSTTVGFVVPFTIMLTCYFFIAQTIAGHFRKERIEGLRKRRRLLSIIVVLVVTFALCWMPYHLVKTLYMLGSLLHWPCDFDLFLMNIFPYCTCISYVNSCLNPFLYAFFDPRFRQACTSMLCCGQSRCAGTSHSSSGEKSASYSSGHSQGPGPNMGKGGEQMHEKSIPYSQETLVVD
Non-standard residues stand in square brackets, D forms with d. No end group written: not given here. Cha = N[C@@H](CC1CCCCC1)C(=O)O
parameter: EC50, inhibition of forskolin-stimulated cAMP production (CHO-A10 clone 6 cells) (nM)

In the examples that follow, each entry is paired with its recorded EC50, inhibition of forskolin-stimulated cAMP production (CHO-A10 clone 6 cells).
binder	value_observed
RPRLSHKGPMPX (C-terminal Nal(2); peptide derivative; Xaa means Nal(2)) [Arg-Pro-Arg-Leu-Ser-His-Lys-Gly-Pro-Met-Pro-Nal(2)]	0.1
RPRLSARGP[Cha]PX (not fully specified (residue 12); printed as Arg-Pro-Arg-Leu-Ser-Ala-Arg-Gly-Pro-Cha-Pro-Phe(Cl)) [Arg-Pro-Arg-Leu-Ser-Ala-Arg-Gly-Pro-Cha-Pro-Phe(Cl)]	0.51
RRQRPRLSHKGPX (oxidized C-terminal residue; peptide; Xaa means Met(O)) [Arg-Arg-Gln-Arg-Pro-Arg-Leu-Ser-His-Lys-Gly-Pro-Met(O)]	0.48
XRPRLSHRGPMPF (N-terminal pGlu; peptide derivative; Xaa means pGlu) [pGlu-Arg-Pro-Arg-Leu-Ser-His-Arg-Gly-Pro-Met-Pro-Phe]	0.2

A. XRPRLSLKGPMPF (N-terminal pGlu; peptide derivative; Xaa means pGlu) [pGlu-Arg-Pro-Arg-Leu-Ser-Leu-Lys-Gly-Pro-Met-Pro-Phe]
B. XRPRLSHKGPMX (N-terminal pGlu; C-terminal Nal(2); peptide derivative; Xaa on the 1st position means pGlu; Xaa on the 12th position means Nal(2)) [pGlu-Arg-Pro-Arg-Leu-Ser-His-Lys-Gly-Pro-Met-Nal(2)]
Of A and B , whose reported EC50, inhibition of forskolin-stimulated cAMP production (CHO-A10 clone 6 cells) is the larger number? Record your answer as the label of the chosen record.
B
(B: 0.52 nM, A: 0.16 nM)
